Reported values of Plant response rating, Cocklebur for individual entries
# Tested on: cocklebur (Xanthium strumarium)
# test: Test B pre-/postemergence
# Assay type: in vivo
# test.context: Rate 250 g/ha, Preemergence
# Method: […] At the same time, these crop and weed species were also treated with postemergence applications of test chemicals formulated in the same manner. […] Treated plants and controls were maintained in a greenhouse for twelve to sixteen days, after which all species were compared to controls and visually evaluated. […]
Please give only the number in your answer, with no unit.

These solved cases illustrate the format of a correct answer.
[
  {
    "smiles": "Cc1cnc(-c2ccc(C(F)(F)F)cc2)nc1Cn1cc(I)cn1",
    "Plant response rating, Cocklebur": 2
  },
  {
    "smiles": "Cc1cnc(-n2ccc(C(F)(F)C(F)(F)F)n2)nc1C(=O)c1cccc(C(F)(F)F)c1",
    "Plant response rating, Cocklebur": 2
  }
]

We now examine a further compound.
Provide only the value of recorded Plant response rating, Cocklebur for CCc1cnc(-c2ccc(C(F)(F)F)cc2)nc1Cc1cccc(C(F)(F)F)c1
2

Values were extracted from patent US6525001B1.
